Assay: Etoposide solubility in various solvents
Type: physicochemical
Conditions: ethanol, organic solvent or mixture, solvent: Ethanol
readout-kind: solubility

COc1cc([C@@H]2c3cc4c(cc3[C@@H](O[C@@H]3O[C@@H]5CO[C@@H](C)O[C@H]5[C@H](O)[C@H]3O)[C@H]3COC(=O)[C@H]23)OCO4)cc(OC)c1O [etoposide] : < 1000 µg/mL

* * *

Assay: Etoposide solubility in various solvents
Format: physicochemical
Conditions: benzyl alcohol, organic solvent or mixture, solvent: Benzyl Alcohol
readout-kind: solubility (mg/mL)

COc1cc([C@@H]2c3cc4c(cc3[C@@H](O[C@@H]3O[C@@H]5CO[C@@H](C)O[C@H]5[C@H](O)[C@H]3O)[C@H]3COC(=O)[C@H]23)OCO4)cc(OC)c1O [etoposide] : 104

* * *

Test: Etoposide solubility in various solvents
Type: physicochemical
Details: dimethylisosorbide, organic solvent or mixture, solvent: Dimethylisosorbide
Excerpt: The high etoposide concentration achievable renders the solution useful as gelatin capsule fill. Table III compares the solubility of etoposide in various solvents.
readout-kind: solubility (mg/mL)

COc1cc([C@@H]2c3cc4c(cc3[C@@H](O[C@@H]3O[C@@H]5CO[C@@H](C)O[C@H]5[C@H](O)[C@H]3O)[C@H]3COC(=O)[C@H]23)OCO4)cc(OC)c1O [etoposide] : 320

Each recorded value in this set is attributed to patent US4772589A.
